// provenance: the nanobody polyreactivity screen of Harvey et al. (2022)

assay: yeast display, Sf9 membrane polyspecificity reagent, FACS + sequencing; frameworks hold sequencing errors
property-measured: polyreactivity (PSR sort gate)

QVQLVESGGGLVQAGGSLRLSCAASGSYTMGWYRQAPGKERELVAAISKSGGSTYYADSVKGRFTISRDNAKNTVYLQMNRLKPEDTAVYYCAAVGWWGTYDYWGQGTQVTVSS
high polyreactivity
QVQLVESGGGLVQAGGSLRLSCAASGRTFGYYGMGWYRQAPGKERELVAAIRRRSGSTYYADSVKGRFTISRDNSKNTFYLQMNSLKPEDTAVYYCNQIRVSNFDYWGQGTQVTVSS
high polyreactivity
QVQLVESGGGLVQAGGSLRLSCAASGSIFFANAMGWYRQAPGKERELVATITSGGSTTYADSVKGRFTISRDNAKNTVYLQMNSLKPEDTAVYYCNADYDYGWVFYSNYDYWGQGTQVTVSS
low polyreactivity
QVQLVESGGGLVQAGGSLLLSCAASGFTFSGYVMGWYRQAPGKERELVAAISNSGGRTYADSVKGRFTISRDNAKNTVYLQMNSLKPEDTAVYYCAKKPGGFSQASRVDYDYWGQGTQVTVSS
low polyreactivity
QVQLVESGGGLVQAGGSLRLSCAASGFTFGSNAMGWYRQAPGKEREFVAAISRSGSRTYYADSVKGRFTISRDNAKNTVYLQMNSLKPEDTAVYYCNARSGEISQRHMDYWGQGTQVTVSS
high polyreactivity

IN: State, in one line, measured polyreactivity (PSR sort gate) of QVQLVESGGGLVQAGGSLRLSCAASGFIFGRYTMGWSRQAPGKEGELVAAISGSDVSTYYADSVKGRFTISRDNAKNTVYLQLNSVKPEDTAVYYCAADAPWAYYEYDYWGQGTQVTVSS
OUT: low polyreactivity

IN: State, in one line, measured polyreactivity (PSR sort gate) of QVQLVESGGGLVQAGGSLRLICAASGFTLADNGMGWYRQAPGKERELVATISGGGSTNYADSVKGRFTISRDNAKNTVYLQMISLKPEDTAVYYCAKEGRYSWYTLSEYDYWGQGTQVTVSS
OUT: low polyreactivity

IN: State, in one line, measured polyreactivity (PSR sort gate) of QVQLVESGGGLVQAGGSLRLSCAASGRIFNYNAMGWYRQAPGKERELVAAISSGGDTYYADSVKGRFTISRDNAKNTVYLQINSLKPEDTAVYYCGSTFVVKGTRFGYWGQGTQVTVSS
OUT: high polyreactivity

IN: State, in one line, measured polyreactivity (PSR sort gate) of QVQLVESGGGLVQAGGSLRLSCAASVGWYRQAPGKERELVAAISFSGGSTYYADSVKGRFTISRDNAKNTVYLQMNSLKPEDTAVYYCAAENFWQTKEYDYWGQGTQVTVSS
OUT: low polyreactivity

IN: State, in one line, measured polyreactivity (PSR sort gate) of QVQLVESGGGLVQAGGSLRLSCAASGSIFGLYAMGWYRQAPGKERELVAGITYSGGSTYYADSVKGRFTISRDNAKNTVYLQLNSLKPEDTAVYYCNTRYWRGWYAYYYWGQGTQVTVSS
OUT: high polyreactivity

====

experiment: yeast display, Sf9 membrane polyspecificity reagent, FACS + sequencing; frameworks hold sequencing errors
property-measured: polyreactivity (PSR sort gate)

Illustrative cases are given below, each with its answer.
QVQLVESGGGLVQAGASLRVSCAASGSTFNYNAMGWYRQAPGKERELVAAITYSGSSTYYSDSVKGRFTISRDNAKNTVYLQMNSLKPEYTAVYYCAADYWFRYGTYEYWGQGTQVSVSS
high polyreactivity
QVQLVESGGGLVQAGGSLRLSCAAYGSTLNRNVMGWYRQAPGKERELVAVITYGVGSTYYADSVKGRFTISRDNAKNTVYLQMNSLKPEDTAVYYCNKDPLVFDYWGQGTQVTVSS
low polyreactivity
QVQLVESGGGLVQAGGSLRLSCAASGSIFDINVMGWYRQAPGKERELVAAITSGGRTNYADSVKGRFTISRDNAKNTVYLQMNSLKPEDTAVYYCAAVRHRQTYPKYNYWGQGTQVTVSS
high polyreactivity
QVQLVESGGGLVQAGGSLRLSCAASGNIFLKNAMGWYRQAPGKERELVAAISKRGGSTYYAYSVKGRFTISRDNAKNTVYLQMNSLKPEDTAVYYCAAVLTKVWRGPEMDYWGQGTQVTVSS
high polyreactivity

IN: State, in one line, measured polyreactivity (PSR sort gate) of QVQLVESGGGLVQAGGSLRLSCAASGSIFFHNAMGWYRQAPGKERELVAAITSSGGRTYYADSVKGRFTISRDNAKNTVYLQMNSLKPEDTAVYYCDASPYGFRRNYYWGQGTQVTVSS
OUT: high polyreactivity

IN: State, in one line, measured polyreactivity (PSR sort gate) of QVQLVESGGGLVQAGGSLRLSCAASGITFQWYAMGWYRQAPGKERELVAAITYRGGSTYYADSVKGRFTISRDNAKNTVYLQMNSLKPEDTAVYYCARDHSRHLHPSWLDYWGQGTQVTVSS
OUT: high polyreactivity

IN: State, in one line, measured polyreactivity (PSR sort gate) of QVQLVESGGGLVQAGGSLRLSCSASGRTFSAYAMGWDRPAPGKERELVARITSVDSTNYADSVKGRFTISRDNAKNSVYLKMNSLTPEDTAVYYCNATFCYPFFDYDDYWGQGTQVTVSS
OUT: low polyreactivity

IN: State, in one line, measured polyreactivity (PSR sort gate) of QVQLVESGGGLVQAGGSLRLSCAASGFTFDYYAMGWYRQAPGKERELVATITSGGRTNYADSVKGRFTLSRDNAKNTVYLQMNSLNPEDTAVYYCAVDWWNVEYFYSATSGDYWGQGTQVTVSS
OUT: low polyreactivity

IN: State, in one line, measured polyreactivity (PSR sort gate) of QVQLVESGGGLVQAGGSLRLSCAASGSIFGAYAMGWYRQAPGKERELVAAISSSVDRTYYADSVKGRFTNSRDNAKNTVYLQMNCLKPEDTAVYYCAARWGTRDRTKYYYWGQGTQVTVSS
OUT: high polyreactivity

====

test: yeast display, Sf9 membrane polyspecificity reagent, FACS + sequencing; frameworks hold sequencing errors
property-measured: polyreactivity (PSR sort gate)

QVQLVESGVGLVQAGGSLRLSCAASASTFYGYTMGWNRQAPGKERELVAAITSTGRTYYADSVKGRFTISRDNAKNTVYLQMNSLKPEDTAVYYCAKKSSARRYDYDYWGQGTQVTVSS
high polyreactivity
QVQLVESGGGLVQAGGSLRLSCAASGIIFRLNAMGWYRQAPGIERELVAAILRRGGSTYYADSVKGRFTISRDNAKNTVYLQMNSLKPEDTAVYYCAKDPHGSDFGYWGQGTQVTVSS
low polyreactivity
QVQLLESGGGLVQAGGSLRLSCAASGIIFLDNAMGWYRQAPGKERELVADITSSGGSTYYADSVKGRFTISRDNAKNTVSLQMNSLKPEDTAVYYCAATRPSYNDAESDYWGQGTQVTVSS
low polyreactivity
QVQLVESGGGLVQAGGSLRLSCAASGGIFAVNVMGWYRQAPGKERELVAAITSTGSTYYADSVKGRFTISRDNAKNTVYLQMNSLKPEDTAVYYCASDYVYYDSYDDTVFGYEYWGQGTQVTVSS
high polyreactivity
QVQLVESGGGLVQAGGSLRLTCAASGSTFPYNAMGWYRPATGKERELVASITGGRKKYADSVKGRFTISRDNEKNTVYLQMNRLKREDTAVYYCAADYYSLWIRRDSNYWGQGTQVTVSS
low polyreactivity

IN: State, in one line, measured polyreactivity (PSR sort gate) of QVQLVESGGGLVQAGGSLRLSCAASGRTFTTYTMGWYRQAPGKERELVAAISWGGTSTYYADSVKGRFTISRDNAKNTVYLQMNSLKPDDTAVYYCNVLERGPGGPDDSWGQGTQVTVSS
OUT: low polyreactivity

IN: State, in one line, measured polyreactivity (PSR sort gate) of QVQLVESGGGLVQAGGSLRFSCDASGRSFYINAMGWYRQAPGKERELVAAITWSGGRTYYADSVKGRFTISRDNAKNTVYLQMNSLKPEDTAVYYCNTRSYSFYVPYRYDYWGQGTHVTVSS
OUT: high polyreactivity

IN: State, in one line, measured polyreactivity (PSR sort gate) of QVQLEESGGGLVQAGGSLRLSCAASGSTFRYYVMGWYRPAPGKERYLVAAITSSGSTNYADSVKGRFTISRDNAKNTVYLQMNSLKPEDTAVYYCAAVYRDRSQKKRIFYYWGQGTQVTVSS
OUT: high polyreactivity

IN: State, in one line, measured polyreactivity (PSR sort gate) of QGQLVESGGRLVQAGGSLRLSCAASGRIFGWYDMGWYREEPGKERELVAAINWSGGSTYYADSVKGRFTISRDNEKNTFYLQMNCLKPEDTAVYYCAADVAQVGYQVGVSEIYPGYEYWGQGTQVNVSS
OUT: low polyreactivity

IN: State, in one line, measured polyreactivity (PSR sort gate) of QVQLVESGGGLVQAGGSLRLSCAASGRIFYRYAMGWYRQAPGKERELVAAINDGGSTYYADSVKGRFTISRDNAKNTVYLQMNSLKPEDTAVYYCNVVNEHQSDFVVPFDYNHWGQGTQVSVSS
OUT: low polyreactivity
